- System: C6
- EXPERIMENTAL_DETAILS: Antiproliferative activity against rat C6 cells after 24 to 72 hrs by hemocytometric analysis
- Type: functional, cell-based

# STRUCTURE_AS_SMILES, IC50 / µg/mL
measured = [
    ("COc1ccc(OC)c(C(=O)/C=C/c2ccc3nccnc3c2)c1", 1.35),
    ("COc1ccc(C(=O)/C=C/c2ccc3nccnc3c2)cc1", 2.19),
    ("COc1ccc(C(=O)/C=C/c2ccc3nccnc3c2)cc1OC", 1),
    ("COc1ccc(C(=O)/C=C/c2ccc3nccnc3c2)c(OC)c1", 1.53),
]

----------
- System: C6
- EXPERIMENTAL_DETAILS: Cytotoxicity against rat C6 cells at 5 ug/ml after 48 hrs by MTT assay
- Assay type: functional
Kind request: treat 50% as inclusive, so Imax at 50% or higher is yes, anything lower is no.

# STRUCTURE_AS_SMILES, CLASSIFICATION
rows = [
    ("O=C(/C=C/c1ccc2nccnc2c1)c1ccc2c(c1)OCO2", "yes"),
    ("COc1ccc(C(=O)/C=C/c2ccc3nccnc3c2)c(OC)c1", "yes"),
    ("O=C(/C=C/c1ccc2nccnc2c1)c1ccc([N+](=O)[O-])cc1", "no"),
    ("COc1ccc(C(=O)/C=C/c2ccc3nccnc3c2)cc1", "yes"),
    ("O=C(/C=C/c1ccc2nccnc2c1)c1ccccc1", "yes"),
    ("O=C(/C=C/c1ccc2nccnc2c1)c1ccc(Br)cc1", "yes"),
]

----------
Let's look at some molecules and their measured Imax.
- EXPERIMENTAL_DETAILS: Antiproliferative activity against human U138MG cells at 5 ug/ml after 24 to 72 hrs by hemocytometric analysis
- Type: functional, U138-MG

# STRUCTURE_AS_SMILES, Imax [%]
rows = [
    ("COc1ccc(C(=O)/C=C/c2ccc3nccnc3c2)cc1", 84),
    ("COc1ccc(C(=O)/C=C/c2ccc3nccnc3c2)c(OC)c1", 86),
    ("COc1ccc(OC)c(C(=O)/C=C/c2ccc3nccnc3c2)c1", 87),
    ("COc1ccc(C(=O)/C=C/c2ccc3nccnc3c2)cc1OC", 84),
]
